Where do these numbers come from? They come from the supplement of paper PMC11417369.

Tested on: PfAP2-LT AP2 domain (GST-tagged)
Experiment: gcPBM binding intensity (ln(normalized median fluorescence intensity)); higher = stronger DNA binding
In all, about 25,000 sequences were measured (“ln(normalized median fluorescence intensity)”: median about 8.9, highest 2% from about 10 on). The full list was thinned out, with the highest values kept by preference.
# maps each entry to its gcPBM binding intensity (ln)
Number, no unit, nothing else.

Query: Would you kindly share the measured gcPBM binding intensity (ln) for TAAATAAATACATACACACACATACAGATATATATA [CACACA_site5690] ?
Reply: 9.62

Query: Would you kindly share the measured gcPBM binding intensity (ln) for TATACAGATAAATACACACACATATATATATATATA [CACACA_site4178] ?
Reply: 10.2

More entries:
Query: Would you kindly share the measured gcPBM binding intensity (ln) for CATAAATACAGATATACACACATATATATATATATA [CACACA_site4528] ?
Reply: 9.7

Query: Would you kindly share the measured gcPBM binding intensity (ln) for CCCCCCGTGTTATATACACACATAATCAAATAAAAT [CACACA_site4111] ?
Reply: 11.1

Query: Would you kindly share the measured gcPBM binding intensity (ln) for AAATTATAATATAATACACACATAAAAAAAAAATCA [CACACA_site3634] ?
Reply: 9
